Test system: SN12C renal
protocol-summary: NCI tumour cell line growth inhibition, 48 h
measured-metric: GI50

{"record-smiles": "COc1cc(-c2n/c(=C\\c3c(O)[nH]c4ccccc34)cc3c2=Nc2ccccc2-3)ccc1F", "system-tested": "SN12C renal", "measured-metric": "GI50", "assay-result": "10.7 µM"}
{"record-smiles": "COc1ccc(NC(=O)c2ccc(C(F)(F)F)nc2Nc2ccc(Cl)cc2C)cc1Cl", "system-tested": "SN12C renal", "measured-metric": "GI50", "assay-result": "3.65 µM"}
{"record-smiles": "N[C@@H](Cc1c[nH]c2ccccc12)C(=O)NC1CCN(Cc2c[nH]c3ccc(Cl)cc23)CC1", "system-tested": "SN12C renal", "measured-metric": "GI50", "assay-result": "15.3 µM"}
{"record-smiles": "COc1ccc2c(c1)/C(=C\\c1c(-c3ccccc3)nc3sccn13)C(=O)N2", "system-tested": "SN12C renal", "measured-metric": "GI50", "assay-result": "9.57 µM"}

Fill in GI50 for record C=C(C)[C@@H]1C/C=C(/COC(C)=O)CC[C@H]2O[C@@]2(C)CC/C=C(\C)CC1
> 100 µM

====

Tested on: SF-268 CNS
protocol-summary: NCI tumour cell line growth inhibition, 48 h
Overview of reported TGI across a group of molecules:
Field format: number, assumed µM, no unit text.

{"molecule": "O=c1oc2ccc(F)cc2c(=O)n1-c1ccc(I)cc1F", "TGI [µM]": 8.25}
{"molecule": "C=CCC1(CN(C)C)CC/C(=C\\c2cc(OC)c(OC)c(OC)c2)C1=O (stereo unspecified)", "TGI [µM]": 51.6}

Attention now turns to another entry.
GET TGI | system: SF-268 CNS | item: COc1nc2ccc(Cl)c(C(O)c3ccccc3)c2nc1OC (stereo unspecified)
84.5

====

Test system: IGROV1 ovarian
protocol-summary: NCI tumour cell line growth inhibition, 48 h
Where a SMILES comes first, the peptide text is derived from it.
measured-metric: TGI

{"compound": "COc1ccc2c(c1)/C(=C\\c1c(-c3ccccc3)nc3sccn13)C(=O)N2", "TGI": "52.3 µM"}

# ---- query compound ----
Return reported TGI for target or system IGROV1 ovarian, item CC(=O)NC(CS)C(=O)NC(CO)C(=O)NC(CO)C(=O)NC(Cc1c[nH]c2ccccc12)C(=O)N1CCCC1C(=O)NC(CO)C(=O)NC(Cc1c[nH]c2ccccc12)C(=O)NC(Cc1c[nH]cn1)C(=O)NC(CO)C(=O)NC(Cc1c[nH]c2ccccc12)C(=O)NCC(=O)NCC(=O)NC(C)C(=O)NC(CCC(N)=O)C(=O)NC(CCCCN)C(=O)NC(C)C(=O)NC(CCCNC(=N)N)C(=O)NC(CCCCN)C(N)=O (configuration not stated) (Ac-CSSWPSWHSWGGAQKARK-NH2; configuration not given here) .
> 50 µM

====

System: SF-295 CNS
protocol-summary: NCI tumour cell line growth inhibition, 48 h
measured-metric: TGI

{"molecule": "Clc1ccc(-c2nnc(-c3nn(-c4ccccc4)c4nc5ccccc5nc34)o2)cc1", "TGI": "> 100 µM"}
{"molecule": "CCC(CO)Nc1nc(NCc2ccccc2)c2n[nH]c(C(C)C)c2n1 (stereo not given)", "TGI": "32.7 µM"}
{"molecule": "Nc1ccc(C(=O)CC2(O)C(=O)Nc3ccccc32)cc1 (stereo not given)", "TGI": "> 100 µM"}
{"molecule": "Cn1cnc(SC2=CC(=O)C=C3S[C@H]4C[C@@]23c2c(c(O)c3c5c2=NCCC=5C=N3)N4)c1CC(N)C(=O)O (stereo not given in full)", "TGI": "29.6 µM"}

Query molecule follows.
Retrieve TGI measured for CCOc1ccc(Nc2ccnc3cc(Cl)ccc23)cc1 and print it.
> 100 µM

====

Tested on: HS 578T breast
protocol-summary: NCI tumour cell line growth inhibition, 48 h
measured-metric: TGI

Examples with their reported TGI follow.
{"molecule": "COP(=O)(/C=C/C(NC(=O)C(Cl)(Cl)Cl)c1ccccc1)OC (configuration not stated)", "system-tested": "HS 578T breast", "TGI": "> 100 µM"}
{"molecule": "Cc1ccc2c(ccc3ncc(CNc4ccc(NS(C)(=O)=O)cc4)c32)[nH]1", "system-tested": "HS 578T breast", "TGI": "59.9 µM"}
{"molecule": "O=C1C=CC(=O)c2c(O)c(NCCN3CCOCC3)c(Cl)c(O)c21", "system-tested": "HS 578T breast", "TGI": "6.54 µM"}
{"molecule": "COc1nc2ccc(Cl)c(C(O)c3ccccc3)c2nc1OC (configuration not stated)", "system-tested": "HS 578T breast", "TGI": "38.9 µM"}
{"molecule": "Brc1ccc2nc(-c3cccs3)nc(N3CCN(c4ccccc4)CC3)c2c1", "system-tested": "HS 578T breast", "TGI": "> 100 µM"}

Kindly indicate its recorded TGI. Item: O=S(=O)(O)c1ccc(N=Nc2ccc(N=Nc3c(O)ccc4ccc(S(=O)(=O)O)cc34)cc2)cc1
> 100 µM

# return recorded TGI for input Oc1cccc2cccnc12
> 100 µM

Read off the recorded TGI for O=C1C2CCCC2N1Cc1ccccc1 (configuration not stated)
> 100 µM

Given CN1/C(=C\N=O)C(C)(C)N(O)C1(C)C , respond with its TGI.
> 100 µM

Identify measured TGI associated with Cc1cc(C)n(CN(CCCCO)Cn2nc(C)cc2C)n1
> 100 µM

Give recorded TGI. O=C1NN(C(=O)c2ccccc2)C(c2ccc(Cl)c(Cl)c2)=C/C1=C\c1ccccc1[N+](=O)[O-]
> 6.75 µM

Identify TGI associated with the molecule C/C(=N\N)C(CN1CCOCC1)C(c1ccccc1)c1c(O)c2ccccc2oc1=O (configuration not stated)
> 100 µM

====

Test system: SR leukemia
protocol-summary: NCI tumour cell line growth inhibition, 48 h
Each record here notes measured TGI.

{"compound": "O=c1oc2ccc(F)cc2c(=O)n1-c1ccc(I)cc1F", "TGI": "11.1 µM"}
{"compound": "COc1nc2c(c(=O)n1C)CN(c1ccccc1)C(=O)CN2C", "TGI": "> 100 µM"}
{"compound": "CN1/C(=C\\N=O)C(C)(C)N(O)C1(C)C", "TGI": "> 100 µM"}
{"compound": "OC(c1cc2ccccc2[nH]1)C(O)(c1cc2ccccc2[nH]1)c1cc2ccccc2[nH]1 (stereo unspecified)", "TGI": "> 245 µM"}
{"compound": "CC1CCCc2c1n[nH]c2CC1CC(=O)NC(=O)C1 (stereo unspecified)", "TGI": "> 100 µM"}
{"compound": "O=C1/C(=C/c2ccc([N+](=O)[O-])cc2)CCCc2ccccc21", "TGI": "> 100 µM"}

Give TGI for O=C(O)C(Cc1ccccc1)N=Cc1nc(-c2ccccc2)oc1O (stereo unspecified)
> 100 µM

Specify reported TGI for the compound shown: Cc1ccc2c(ccc3ncc(CNc4ccc(NS(C)(=O)=O)cc4)c32)[nH]1
50.8 µM

# return recorded TGI for input COc1ccc2c(c1)C(=O)c1c-2n(CCCN=[N+]=[N-])c(=O)c2cc([N+](=O)[O-])ccc12
13.4 µM

Output TGI of CCOC(=O)C(=CNc1ccc(S(N)(=O)=O)cc1)C(=O)OCC
> 100 µM

Give the value of TGI reported for the following: N#CC12CC(C=O)=C(N)C1(C#N)CC(C=O)=C2N (stereo unspecified)
> 100 µM

====

Test system: NCI-H226 lung
protocol-summary: NCI tumour cell line growth inhibition, 48 h; in the data active = GI50 below about 0.43 µM; inactive = the rest
Return exactly one item of Yes = active, No = inactive

Please review the following examples before continuing.
{"compound": "COc1ccc2cc(C(=O)N3CCC([C@@H](C)C(=O)NCc4ccc5c(c4)OCO5)CC3)[nH]c2c1", "group-label": "No"}
{"compound": "NC(=O)c1ccc(I)c([N+](=O)[O-])c1", "group-label": "No"}
{"compound": "NC(CCl)=NCC12CC3CC(CC(C3)C1)C2", "group-label": "No"}
{"compound": "N#Cc1c(N)c(C(=O)c2ccc3c(c2)OCCO3)n2c1CCCC2", "group-label": "No"}

Record request — test call for COc1cc(/C=C/C(=O)c2ccccc2O)ccc1OCCCOc1cc2c(cc1OC)C(=O)N1CCC[C@H]1C=N2
Yes

For C=C[C@@H]1CCC/C=C/[C@@H]2C[C@H](O)C[C@H]2[C@H](O)/C=C/C(=O)O1 , what call appears in the results of this test?
Yes

Recorded test call requested for O=C1/C(=C/c2ccc(Cl)cc2)N=C(c2ccccc2)N1c1cc(C(F)(F)F)ccc1Cl
No

What classification did O=c1cc(-c2ccccc2)oc2c(O)c(O)ccc12 end up with in this test?
No

Answer briefly: the call reported for C#Cc1cccc(Nc2nc(C)nc3cc(NC(=O)CCl)ccc23)c1 in this assay.
No
